Catalogue of percent viability values
tested on: MCF10A; assay: percent viability (nuclei count relative to siNT); higher = more viable cells; conditions: 20 nM; 72 h
measured.attribute: percent viability (%)

> print(dat)
                        biopolymer.sequence  target.or.system  measured.attribute  unit.symbol  measured.number
1  UUCACCCCUCUCACCUAAGCAG [hsa-miR-6802-3p]            MCF10A   percent viability            %             63.6
2     AUCAACAGACAUUAAUUGGGCGC [hsa-miR-421]            MCF10A   percent viability            %             61.3
3   CCGCCUUCUCUCCUCCCCCAG [hsa-miR-6880-3p]            MCF10A   percent viability            %              117
4     CACUGGCUCCUUUCUGGGUAGA [hsa-miR-892b]            MCF10A   percent viability            %             25.4
5  UGGCUGCUUCCCUUGGUCUCCAG [hsa-miR-6762-3p]            MCF10A   percent viability            %             20.3
6   UGGAUUUCUUUGUGAAUCACCA [hsa-miR-876-5p]            MCF10A   percent viability            %              143
